target: T1, soluble DR 1 (DRB1*0101) class II molecules purified from HOM-2 EBV-B cells (human), P01903; assay: peptide competition ELISA, soluble DR 1, biotinylated indicator GFK(A)7
T1 chain 1: not shown
T1 chain 2: not shown
Readout kind: IC50

{"Binder": "DPNANPNVDPNANPNV (modifications not checked)", "Measurement": "> 100 µM"}
